# Test system: NCI-H1437
# protocol-summary: relative viability (nuclei count vs DMSO), 5 days (fraction); higher = more cells survive
# run-conditions: first compound 0.04 µM
For each record, write down the corresponding relative viability.
Give the value as a plain number.

Recorded relative viability (compound O=C(O)c1ccc(-c2c[nH]c3ncc(-c4ccccc4)cc23)cc1C1CCCC1 + CC(=O)Nc1cccc(-n2c(=O)n(C3CC3)c(=O)c3c(Nc4ccc(I)cc4F)n(C)c(=O)c(C)c32)c1 [Trametinib] (partner 0.02 µM) ): 0.476

Reported relative viability of O=C(O)c1ccc(-c2c[nH]c3ncc(-c4ccccc4)cc23)cc1C1CCCC1 + CCNC(=O)c1noc(-c2cc(C(C)C)c(O)cc2O)c1-c1ccc(CN2CCOCC2)cc1 [Luminespib] (partner 0.01 µM) : 1.09

// recorded relative viability for O=C(O)c1ccc(-c2c[nH]c3ncc(-c4ccccc4)cc23)cc1C1CCCC1 + CS(=O)(=O)N1CCN(Cc2cc3nc(-c4cccc5[nH]ncc45)nc(N4CCOCC4)c3s2)CC1 [Pictilisib] (partner 1 µM) : 0.489

* * *

I'd appreciate it if you could supply relative viability values for the items below.
# System: NCI-H2126
# protocol-summary: relative viability (nuclei count vs DMSO), 5 days (fraction); higher = more cells survive
# run-conditions: first compound 0.1581 µM
Please state the value as a number alone, without comment.

Value of relative viability reported for the molecule CC1(C)CCC(c2ccc(Cl)cc2)=C(CN2CCN(c3ccc(C(=O)NS(=O)(=O)c4ccc(N[C@H](CCN5CCOCC5)CSc5ccccc5)c(S(=O)(=O)C(F)(F)F)c4)cc3)CC2)C1 [Navitoclax] + Nc1nc2[nH]cc(CCc3ccc(C(=O)N[C@@H](CCC(=O)O)C(=O)O)cc3)c2c(=O)[nH]1 [Pemetrexed] (partner 0.2 µM) is 0.602

# molecule CC1(C)CCC(c2ccc(Cl)cc2)=C(CN2CCN(c3ccc(C(=O)NS(=O)(=O)c4ccc(N[C@H](CCN5CCOCC5)CSc5ccccc5)c(S(=O)(=O)C(F)(F)F)c4)cc3)CC2)C1 [Navitoclax] + O=C(CCCCCCC(=O)Nc1ccccc1)NO [Vorinostat] (partner 1 µM) ; its relative viability = 0.761

// sample CC1(C)CCC(c2ccc(Cl)cc2)=C(CN2CCN(c3ccc(C(=O)NS(=O)(=O)c4ccc(N[C@H](CCN5CCOCC5)CSc5ccccc5)c(S(=O)(=O)C(F)(F)F)c4)cc3)CC2)C1 [Navitoclax] + CC(=O)Nc1cccc(-n2c(=O)n(C3CC3)c(=O)c3c(Nc4ccc(I)cc4F)n(C)c(=O)c(C)c32)c1 [Trametinib] (partner 0.02 µM) , its relative viability was 0.524

Data point: CC1(C)CCC(c2ccc(Cl)cc2)=C(CN2CCN(c3ccc(C(=O)NS(=O)(=O)c4ccc(N[C@H](CCN5CCOCC5)CSc5ccccc5)c(S(=O)(=O)C(F)(F)F)c4)cc3)CC2)C1 [Navitoclax] + O=C(c1cc(Cc2n[nH]c(=O)c3ccccc23)ccc1F)N1CCN(C(=O)C2CC2)CC1 [Olaparib] (partner 8 µM) ; relative viability = 0.86

Record CC1(C)CCC(c2ccc(Cl)cc2)=C(CN2CCN(c3ccc(C(=O)NS(=O)(=O)c4ccc(N[C@H](CCN5CCOCC5)CSc5ccccc5)c(S(=O)(=O)C(F)(F)F)c4)cc3)CC2)C1 [Navitoclax] + Cc1nc(NC(=O)N2CCC[C@H]2C(N)=O)sc1-c1ccnc(C(C)(C)C(F)(F)F)c1 [Alpelisib] (partner 2 µM) , field relative viability: 0.727

relative viability recorded for this molecule, CC1(C)CCC(c2ccc(Cl)cc2)=C(CN2CCN(c3ccc(C(=O)NS(=O)(=O)c4ccc(N[C@H](CCN5CCOCC5)CSc5ccccc5)c(S(=O)(=O)C(F)(F)F)c4)cc3)CC2)C1 [Navitoclax] + NC(=O)Nc1cc(-c2cccc(F)c2)sc1C(=O)N[C@H]1CCCNC1 [AZD7762] (partner 0.2 µM) , is 0.915

Summary for this molecule, CC1(C)CCC(c2ccc(Cl)cc2)=C(CN2CCN(c3ccc(C(=O)NS(=O)(=O)c4ccc(N[C@H](CCN5CCOCC5)CSc5ccccc5)c(S(=O)(=O)C(F)(F)F)c4)cc3)CC2)C1 [Navitoclax] + COc1cc2c(Oc3ccc(NC(=O)C4(C(=O)Nc5ccc(F)cc5)CC4)cc3F)ccnc2cc1OCCCN1CCOCC1 [Foretinib] (partner 0.25 µM) : relative viability is 1.14

Data point: CC1(C)CCC(c2ccc(Cl)cc2)=C(CN2CCN(c3ccc(C(=O)NS(=O)(=O)c4ccc(N[C@H](CCN5CCOCC5)CSc5ccccc5)c(S(=O)(=O)C(F)(F)F)c4)cc3)CC2)C1 [Navitoclax] + CS(=O)(=O)CCNCc1ccc(-c2ccc3ncnc(Nc4ccc(OCc5cccc(F)c5)c(Cl)c4)c3c2)o1 [Lapatinib] (partner 2 µM) ; relative viability = 0.729
